Target: 5-hydroxytryptamine receptor 2B (Rattus norvegicus, UniProt P30994)
Sequence (P30994 whole entry): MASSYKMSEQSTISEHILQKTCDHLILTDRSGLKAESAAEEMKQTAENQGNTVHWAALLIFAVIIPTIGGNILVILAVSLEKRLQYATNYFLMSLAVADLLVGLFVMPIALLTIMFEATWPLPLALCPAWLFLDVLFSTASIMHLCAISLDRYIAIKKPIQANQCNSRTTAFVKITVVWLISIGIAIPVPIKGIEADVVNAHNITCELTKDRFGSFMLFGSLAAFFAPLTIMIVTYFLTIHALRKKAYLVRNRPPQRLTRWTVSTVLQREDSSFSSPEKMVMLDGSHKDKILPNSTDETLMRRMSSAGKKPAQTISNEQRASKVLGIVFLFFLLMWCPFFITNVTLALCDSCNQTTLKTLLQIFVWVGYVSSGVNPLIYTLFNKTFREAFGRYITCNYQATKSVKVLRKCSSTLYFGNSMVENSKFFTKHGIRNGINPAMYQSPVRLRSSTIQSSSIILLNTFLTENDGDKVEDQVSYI
Experiment: Inhibitory potency against rat stomach fundus 5-hydroxytryptamine 2B receptor
Format: tissue-based
Conditions: read-out: pA2 (converted)
MEASURED QUANTITY: Kb (nM)

a. Cn1ccc2c3c(ccc21)N(C(=O)Nc1cccnc1)CC3
b. Cn1ccc2cc3c(cc21)CCCN3C(=O)Nc1cccnc1
c. Cn1ccc2cc3c(cc21)CCN3C(=O)Nc1cccnc1
Given 3 molecules, produce a descending ranking by Kb. Order the labels as requested and give them as your answer.
b, a, c
(b: 53.7 nM, a: 17.8 nM, c: 3.31 nM)

* * *

Biological target: 5-hydroxytryptamine receptor 2C (Homo sapiens, UniProt P28335)
Sequence (P28335 whole entry): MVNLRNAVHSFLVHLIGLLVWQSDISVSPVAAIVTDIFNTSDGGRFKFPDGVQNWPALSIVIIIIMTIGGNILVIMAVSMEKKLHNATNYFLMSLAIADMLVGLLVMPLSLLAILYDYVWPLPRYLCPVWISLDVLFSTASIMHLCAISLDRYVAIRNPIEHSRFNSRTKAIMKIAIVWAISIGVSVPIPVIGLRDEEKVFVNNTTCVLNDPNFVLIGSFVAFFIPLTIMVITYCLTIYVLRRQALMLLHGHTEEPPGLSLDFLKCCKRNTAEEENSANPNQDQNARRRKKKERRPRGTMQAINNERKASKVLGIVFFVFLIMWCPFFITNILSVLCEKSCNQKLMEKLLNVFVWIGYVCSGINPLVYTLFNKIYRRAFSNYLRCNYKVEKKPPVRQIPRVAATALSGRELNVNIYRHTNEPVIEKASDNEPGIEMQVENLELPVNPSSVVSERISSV
Assay: Binding affinity against human 5-hydroxytryptamine 2C receptor expressed in 293 cells using [3H]mesulergine
Type: cell-based, HEK293
MEASURED QUANTITY: Ki (µM)

A. Cn1ccc2cc3c(cc21)CCCN3C(=O)Nc1cccnc1
B. Cn1ccc2c3c(ccc21)N(C(=O)Nc1cccnc1)CC3
Hi, I'm comparing two records. Which one has the lower Ki, A or B ? Refer to your chosen item by its label in the answer.
B

* * *

Target: 5-hydroxytryptamine receptor 2C (Homo sapiens)
Assay: Binding affinity against human 5-hydroxytryptamine 2C receptor expressed in 293 cells using [3H]mesulergine
Assay type: cell-based, HEK293
MEASURED QUANTITY: pKi
Scale explanation: pKi corresponds to minus log10 of a concentration expressed in moles per litre.

Fill in reported pKi for this entry: Cl.Cn1ccc2cc(NC(=O)Nc3cccnc3)ccc21
6.86

* * *

Target: D(2) dopamine receptor (Homo sapiens)
Sequence (P14416 whole entry): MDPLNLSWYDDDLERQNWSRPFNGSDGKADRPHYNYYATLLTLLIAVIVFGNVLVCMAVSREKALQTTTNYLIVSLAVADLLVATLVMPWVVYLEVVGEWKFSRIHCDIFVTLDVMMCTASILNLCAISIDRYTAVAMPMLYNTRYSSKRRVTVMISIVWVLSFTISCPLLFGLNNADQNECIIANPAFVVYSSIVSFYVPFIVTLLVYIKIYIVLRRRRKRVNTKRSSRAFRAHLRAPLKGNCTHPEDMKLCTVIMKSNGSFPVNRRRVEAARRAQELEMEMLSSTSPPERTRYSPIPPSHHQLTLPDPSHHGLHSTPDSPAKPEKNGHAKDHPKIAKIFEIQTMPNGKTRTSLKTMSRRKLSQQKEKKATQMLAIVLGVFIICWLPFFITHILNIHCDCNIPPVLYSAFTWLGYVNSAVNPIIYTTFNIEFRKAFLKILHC
Test: Binding affinity against human Dopamine receptor D2 expressed in CHO cells using [125I]iodosulpiride
pKi: −log10 of the molar value.
MEASURED QUANTITY: pKi

Give the observed pKi of Cn1ccc2cc3c(cc21)CCN3C(=O)Nc1cccnc1 for D(2) dopamine receptor (Homo sapiens).
< 5.00

* * *

Biological target: Serotonin 3 (5-HT3) receptor (Rattus norvegicus, UniProt P35563+Q9JJ16)
Sequence (P35563 whole entry): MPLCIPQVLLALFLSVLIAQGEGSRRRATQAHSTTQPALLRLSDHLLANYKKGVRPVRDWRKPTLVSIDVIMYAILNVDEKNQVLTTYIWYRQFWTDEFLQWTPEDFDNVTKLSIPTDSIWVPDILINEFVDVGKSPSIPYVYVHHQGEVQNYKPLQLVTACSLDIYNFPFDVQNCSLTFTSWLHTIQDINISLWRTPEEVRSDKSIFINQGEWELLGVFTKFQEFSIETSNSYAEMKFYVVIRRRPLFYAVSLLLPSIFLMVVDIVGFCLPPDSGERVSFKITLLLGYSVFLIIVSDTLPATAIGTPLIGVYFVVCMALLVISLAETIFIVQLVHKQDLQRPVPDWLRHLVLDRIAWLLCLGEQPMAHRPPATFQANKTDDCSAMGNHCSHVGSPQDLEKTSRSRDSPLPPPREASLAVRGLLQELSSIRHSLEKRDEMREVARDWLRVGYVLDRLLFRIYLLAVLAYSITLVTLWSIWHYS
Sequence (Q9JJ16 whole entry): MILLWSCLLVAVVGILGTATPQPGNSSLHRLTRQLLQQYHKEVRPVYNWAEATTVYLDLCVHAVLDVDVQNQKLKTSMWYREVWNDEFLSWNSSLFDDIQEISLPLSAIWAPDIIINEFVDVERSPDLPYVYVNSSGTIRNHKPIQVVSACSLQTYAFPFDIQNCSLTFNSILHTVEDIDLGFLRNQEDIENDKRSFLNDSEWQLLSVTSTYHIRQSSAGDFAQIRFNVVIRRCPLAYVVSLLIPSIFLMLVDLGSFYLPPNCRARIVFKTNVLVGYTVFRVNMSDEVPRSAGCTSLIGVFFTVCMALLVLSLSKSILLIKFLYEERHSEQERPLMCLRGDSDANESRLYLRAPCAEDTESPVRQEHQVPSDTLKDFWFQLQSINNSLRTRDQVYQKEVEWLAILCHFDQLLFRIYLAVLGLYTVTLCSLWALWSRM
Assay: Binding affinity against rat 5-hydroxytryptamine 3 receptor
MEASURED QUANTITY: Ki

Name the recorded Ki of the item Cn1ccc2cc3c(cc21)CCN3C(=O)Nc1cccnc1 in your answer.
> 10 µM

* * *

Target: UniProt P19327
Sequence (P19327 whole entry): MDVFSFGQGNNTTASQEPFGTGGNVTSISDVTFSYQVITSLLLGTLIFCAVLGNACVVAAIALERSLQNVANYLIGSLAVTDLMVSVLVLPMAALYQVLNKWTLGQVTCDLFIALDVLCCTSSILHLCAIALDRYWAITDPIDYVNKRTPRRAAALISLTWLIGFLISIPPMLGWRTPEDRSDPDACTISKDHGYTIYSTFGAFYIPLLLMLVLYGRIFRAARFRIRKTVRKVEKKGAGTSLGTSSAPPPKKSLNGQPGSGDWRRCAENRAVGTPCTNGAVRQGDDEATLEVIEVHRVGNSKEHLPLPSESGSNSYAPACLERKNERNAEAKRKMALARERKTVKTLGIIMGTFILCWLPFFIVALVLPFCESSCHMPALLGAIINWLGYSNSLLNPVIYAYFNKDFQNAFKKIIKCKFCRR
pKi: −log10 of the molar value.
MEASURED QUANTITY: pKi

Lab note: record pKi of Cn1ccc2cc3c(cc21)CCN3C(=O)Nc1cccnc1 tested on UniProt P19327.
< 5.00

* * *

Target: 5-hydroxytryptamine receptor 1E (Homo sapiens, UniProt P28566)
Sequence (P28566 whole entry): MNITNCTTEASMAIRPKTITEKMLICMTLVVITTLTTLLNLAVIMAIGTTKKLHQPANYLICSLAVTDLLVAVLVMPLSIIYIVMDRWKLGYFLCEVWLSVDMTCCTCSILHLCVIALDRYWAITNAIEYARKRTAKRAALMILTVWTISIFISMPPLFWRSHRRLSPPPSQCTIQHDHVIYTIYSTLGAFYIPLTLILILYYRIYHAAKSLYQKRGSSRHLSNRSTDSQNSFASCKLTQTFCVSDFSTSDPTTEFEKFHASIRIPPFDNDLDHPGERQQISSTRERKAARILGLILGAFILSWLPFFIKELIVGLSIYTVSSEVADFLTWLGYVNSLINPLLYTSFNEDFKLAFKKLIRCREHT
Experiment: Binding affinity against human 5-hydroxytryptamine 1E receptor expressed in CHO cells
Assay type: cell-based
MEASURED QUANTITY: Ki

Quick one: give measured Ki for Cn1ccc2cc3c(cc21)CCN3C(=O)Nc1cccnc1
> 5.01 µM
